assay: AUC(0-24h) of aliskiren hemifumarate following 2 week oral dosing of aliskiren hemifumarate at 100 mg.Kg-1 level studied on day 1 in female Callithrix jacchus; type: ADME, organism-based; conditions: marmoset, plasma
reported-metric: AUC(0-t) at 24 h (ng·h/mL)
Quick reminder: number only, in ng·h/mL, skip the unit.

-- ask Entry COCCCOc1cc(C[C@@H](C[C@H](N)[C@@H](O)C[C@H](C(=O)NCC(C)(C)C(N)=O)C(C)C)C(C)C)ccc1OC.COCCCOc1cc(C[C@@H](C[C@H](N)[C@@H](O)C[C@H](C(=O)NCC(C)(C)C(N)=O)C(C)C)C(C)C)ccc1OC.O=C(O)/C=C/C(=O)O [ALISKIREN FUMARATE] has what AUC(0-t) at 24 h?
-- reply 84000

----------
assay: AUC of unlabeled aliskiren hemifumarate following single oral dose of aliskiren hemifumarate at 500 mg.Kg-1 level in mouse; type: ADME, organism-based; details: TgRasH2, mouse, plasma
reported-metric: AUC (µM·h)
Quick reminder: number only, in µM·h, skip the unit.

-- ask Entry COCCCOc1cc(C[C@@H](C[C@H](N)[C@@H](O)C[C@H](C(=O)NCC(C)(C)C(N)=O)C(C)C)C(C)C)ccc1OC.COCCCOc1cc(C[C@@H](C[C@H](N)[C@@H](O)C[C@H](C(=O)NCC(C)(C)C(N)=O)C(C)C)C(C)C)ccc1OC.O=C(O)/C=C/C(=O)O [ALISKIREN FUMARATE] has what AUC?
-- reply 7.04

----------
test: AUC of aliskiren hemifumarate following single dosing of SPP100B oral solution at 80 mg level studied on day 1 in men; type: ADME, organism-based; conditions: male, human, plasma
reported-metric: AUC (ng·h/mL)
Quick reminder: number only, in ng·h/mL, skip the unit.

-- ask Entry COCCCOc1cc(C[C@@H](C[C@H](N)[C@@H](O)C[C@H](C(=O)NCC(C)(C)C(N)=O)C(C)C)C(C)C)ccc1OC.COCCCOc1cc(C[C@@H](C[C@H](N)[C@@H](O)C[C@H](C(=O)NCC(C)(C)C(N)=O)C(C)C)C(C)C)ccc1OC.O=C(O)/C=C/C(=O)O [ALISKIREN FUMARATE] has what AUC?
-- reply 96.4

----------
biological target: CYP2A6 (Homo sapiens); assay: in vitro; settings: probe coumarine
Sequence (P11509 whole entry): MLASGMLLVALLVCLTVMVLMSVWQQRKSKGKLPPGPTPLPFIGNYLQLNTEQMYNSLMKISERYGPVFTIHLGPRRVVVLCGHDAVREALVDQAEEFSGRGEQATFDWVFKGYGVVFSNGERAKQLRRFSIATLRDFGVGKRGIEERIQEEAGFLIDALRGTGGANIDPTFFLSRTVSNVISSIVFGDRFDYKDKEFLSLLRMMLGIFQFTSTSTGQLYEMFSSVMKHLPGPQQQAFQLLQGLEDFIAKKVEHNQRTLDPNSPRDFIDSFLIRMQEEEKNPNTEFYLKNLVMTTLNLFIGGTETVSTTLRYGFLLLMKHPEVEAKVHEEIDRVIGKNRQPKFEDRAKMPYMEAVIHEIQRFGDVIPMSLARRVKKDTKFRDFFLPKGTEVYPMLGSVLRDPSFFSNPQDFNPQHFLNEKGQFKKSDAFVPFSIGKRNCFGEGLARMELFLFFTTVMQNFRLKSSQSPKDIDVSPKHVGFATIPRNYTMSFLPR
reported-metric: inhibition at 100 µM (%)
Quick reminder: number only, in %, skip the unit.

-- ask Entry N[C@@H]1C[C@H]1c1ccccc1.N[C@H]1C[C@@H]1c1ccccc1 has what inhibition at 100 µM?
-- reply 99

----------
experiment: AUC of aliskiren hemifumarate following single dosing of SPP100B oral solution at 160 mg level studied on day 1 in men; assay type: ADME, organism-based; details: male, human, plasma
reported-metric: AUC (ng·h/mL)
Quick reminder: number only, in ng·h/mL, skip the unit.

-- ask Entry COCCCOc1cc(C[C@@H](C[C@H](N)[C@@H](O)C[C@H](C(=O)NCC(C)(C)C(N)=O)C(C)C)C(C)C)ccc1OC.COCCCOc1cc(C[C@@H](C[C@H](N)[C@@H](O)C[C@H](C(=O)NCC(C)(C)C(N)=O)C(C)C)C(C)C)ccc1OC.O=C(O)/C=C/C(=O)O [ALISKIREN FUMARATE] has what AUC?
-- reply 215
